system: SK-MEL-28 melanoma; assay: NCI-60 one-dose screen, 48 h (100 = growth as untreated, 0 = no growth, -100 = all killed); conditions: 10 µM unless noted
About 83,000 compounds went through this panel and 20% of them were active in at least one assay; those are over-represented in the sample as a whole.
Readout Kind: growth (%)
Respond numerically; units are % and should not be typed.

Known growth results, listed for orientation:
- Molecule: "Cc1cc2nc(-c3c(N)ncc(C#N)c3-c3ccc(Cl)cc3)[nH]c2cc1C"
  Readout Kind: "growth"
  Measured Result: 57.6
- Molecule: "CC1CCc2cc(F)cc3c(=O)c(C(=O)O)cn1c23 (stereo not given)"
  Readout Kind: "growth"
  Measured Result: 120

Dear colleague, I am looking for the recorded growth of the following molecule: "CCCc1nn2c(CCC(=O)c3nc4ccc([N+](=O)[O-])cc4[nH]3)nnc2s1"
103

What do we get for "COc1ccc(/C=C/C(=O)c2ccc(-n3cc(CN4CCN(c5cc6c(cc5F)c(=O)c(C(=O)O)cn6C5CC5)CC4)nn3)cc2)cc1OC" ?
34.6

Subsequent entry: "COc1cc(C(=O)N2CCN(C(=O)c3cc(OC)c(OCc4ccccc4)cc3N)CC2)c(N)cc1OCc1ccccc1"
123

What do you get for "c1ccc(CNCCN(CCNCc2ccccn2)Cc2ccc3ccccc3c2)nc1" ?
5

What do you get for "S=c1ssnc1-c1ccccn1" ?
52.2

Consider next the molecule "COc1cc(/C=C/C(=O)c2c(C)n([O-])c3cc(C)c(C)cc3[n+]2=O)cc(OC)c1OC" in the same way.
72.9

Can you handle "CCCCNC(=O)Oc1ccc(/C(=C(/CC)Cc2ccccc2)c2ccc(OCCCN(C)C)cc2)cc1" next?
95.9

Can you handle "Cc1cc[n+](CCCC[n+]2ccc(C)cc2)cc1" next?
105

---

test system: T-47D breast; assay: NCI-60 one-dose screen, 48 h; details: 10 µM unless noted
Compounds without any hit were thinned out: in the full panel of roughly 83,000, 20% have a hit. Calls of active or inactive are those of the source. The calls were made as follows: active = growth percent below 10; inactive = the rest.
Please reply with one of these outcomes: TRUE (active), FALSE (inactive)

- Compound: "CC1CCc2cc(F)cc3c(=O)c(C(=O)O)cn1c23 (stereo not given)"
  Class: "FALSE"
- Compound: "O=C1COc2ccccc2C(=O)N1CCCCN1CCCCC1"
  Class: "FALSE"
- Compound: "O=C(NCCNc1nccc(-c2c(-c3cccc(O)c3)nc3sccn23)n1)Nc1cccc(C(F)(F)F)c1"
  Class: "FALSE"
- Compound: "C=CCOc1ccc(/C(Cl)=N/N=C(\\Cl)c2cc(OC)c(OC)c(OC)c2)cc1"
  Class: "FALSE"
- Compound: "CCNc1ncnc2n[nH]nc12"
  Class: "FALSE"

Status in this test for "CN(C)CCS(=O)(=O)Nc1cc(-c2ccc3ncnc(Nc4ccc(F)c(Cl)c4)c3c2)cnc1Cl" ?
TRUE

Another compound: "CCc1c(C)c2cc3nc(NCc4ccccc4)oc3c(C)c2oc1=O"
FALSE

Try this compound too: "O=C(/C=C/c1ccco1)c1cccc(Nc2nc(Nc3ccccc3)nc(Nc3ccccc3)n2)c1"
FALSE

"CCn1cc(/C=C2\Oc3cc(OCC#N)ccc3C2=O)c2cc(OC)ccc21" ?
FALSE

Queued: "COc1ccc(Cl)cc1NC(=O)c1cc2c(n1C)-c1nc(NC(=O)C(C)C)sc1CC2"
FALSE
